The origin of these recorded values is paper PMC3695229.

Biological target: T1, TGF-β2 (Homo sapiens, UniProt P61812)
T1 chain: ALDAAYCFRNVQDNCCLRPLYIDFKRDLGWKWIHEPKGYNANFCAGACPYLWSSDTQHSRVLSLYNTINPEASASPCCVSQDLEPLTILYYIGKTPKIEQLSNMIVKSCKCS
Test: SPR
pKd: −log10 of the molar value. * marks the point of attachment. Biotin = O=C1N[C@H]2[C@H](CS[C@H]2CCCCC(=O)*)N1
experimental endpoint: pKd

Examples from the recorded data:
Biotin-DASIIWAMMQNKKTFTK-NH2 [P5-hZP 734-750] | ~6.46
MIWTMMQNKKTFTKP [P1-mZP ZP-C peptide] | 8.10

// below: pKd requested for another binder
Query block: Identify the reported pKd for the following entry. Biotin-DATMIWTMMQNKKTFTK-NH2 [P4-mZP 732-748]
Result block: ~6.72
